Exercise: state measured CC50 at 48 h for each of the compounds provided.
assay: Toxicity studies, microtetrazolium test; format: cell-based; conditions: dog, MDCK cells (ATCC CCL-34)
Give bare numbers, in µM.

Reference set (2 entries):
>>> print(df.to_string())
                                   compound  reported_result
0  COC(=O)c1c(-c2ccc(OC)c(OC)c2)oc2c(F)c(F)c(F)cc2c1=O [Compound 5а]              508
1  COC(=O)c1c(-c2ccc(OC)cc2)oc2c(F)c(-n3ccnc3)c(F)c(O)c2c1=O [Compound 8b]              629

Please examine the following record next.
stdin: I'd like to know its CC50 at 48 h. The compound in question is COC(=O)c1c(-c2ccc(OC)c(OC)c2)oc2c(F)c(F)c(F)c(F)c2c1=O [Compound 4a]
stdout: 109
